Source: patent US7816408B2

- target_under_test: human calcium receptor (Homo sapiens, UniProt P41180)
- Sequence (P41180 20-1078): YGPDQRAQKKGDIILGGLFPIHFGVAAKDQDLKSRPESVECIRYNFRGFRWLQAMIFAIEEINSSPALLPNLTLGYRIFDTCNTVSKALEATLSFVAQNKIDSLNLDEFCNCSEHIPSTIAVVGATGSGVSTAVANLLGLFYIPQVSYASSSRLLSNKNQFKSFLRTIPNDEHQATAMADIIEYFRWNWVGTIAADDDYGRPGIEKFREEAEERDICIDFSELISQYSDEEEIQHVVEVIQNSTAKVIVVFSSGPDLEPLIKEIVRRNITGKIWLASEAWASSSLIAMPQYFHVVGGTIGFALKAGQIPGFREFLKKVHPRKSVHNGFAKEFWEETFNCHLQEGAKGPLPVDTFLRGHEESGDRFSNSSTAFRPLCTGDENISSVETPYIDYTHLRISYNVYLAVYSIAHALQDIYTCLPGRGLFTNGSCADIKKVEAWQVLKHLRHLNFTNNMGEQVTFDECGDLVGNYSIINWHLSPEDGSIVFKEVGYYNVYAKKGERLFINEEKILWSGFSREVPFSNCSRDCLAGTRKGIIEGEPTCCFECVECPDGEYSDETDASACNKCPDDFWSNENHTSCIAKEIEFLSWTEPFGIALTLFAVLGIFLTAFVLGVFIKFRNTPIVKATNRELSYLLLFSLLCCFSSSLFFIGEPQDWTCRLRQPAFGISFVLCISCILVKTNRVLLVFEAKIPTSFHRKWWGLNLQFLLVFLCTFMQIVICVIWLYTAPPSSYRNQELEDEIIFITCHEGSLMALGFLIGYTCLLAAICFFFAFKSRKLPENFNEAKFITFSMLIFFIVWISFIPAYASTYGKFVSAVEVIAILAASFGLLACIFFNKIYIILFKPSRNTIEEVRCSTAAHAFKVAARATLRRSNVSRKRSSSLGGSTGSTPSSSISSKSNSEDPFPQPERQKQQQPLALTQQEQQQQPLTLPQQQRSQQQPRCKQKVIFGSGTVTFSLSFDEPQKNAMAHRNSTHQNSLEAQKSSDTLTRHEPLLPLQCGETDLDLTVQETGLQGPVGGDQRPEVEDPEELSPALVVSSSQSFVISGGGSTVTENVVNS
- procedure_text: Activity on calcium receptors: fluo-3 fluorescence in HEK293 cells transfected with human calcium receptor gene
- measurement_context: HEK293 cells transfected with plasmid pHuPCaR4.0 (human calcium receptor gene), loaded with fluo-3; 1 mM CaCl2, 1 mM MgCl2
For each record, write down the corresponding pEC50.
One number for each entry, as −log10 of the molar value.

>  <compound>
Cc1ccc(SCCCCN[C@H](C)c2cccc3ccccc23)cc1 [Compound K-2304]

>  <pEC50>
7.01

$$$$
>  <compound>
CC(NCCC(=O)N(Cc1ccccc1)Cc1ccc(Cl)cc1Cl)c1cccc2ccccc12 (stereo not shown) [Compound K-2251]

>  <pEC50>
7.29

$$$$
>  <compound>
Cc1ccc(CN(Cc2ccc(C(F)(F)F)cc2)C(=O)CCN[C@H](C)c2cccc3ccccc23)cc1 [Compound K-2299]

>  <pEC50>
6.82

$$$$

// Input: COc1ccc(CN(Cc2ccc(O)cc2)C(=O)CCNC(C)c2cccc3ccccc23)cc1 (stereo not shown) [Compound K-2312] . Output its pEC50 only.
7.10

====

- target_under_test: human calcium receptor (Homo sapiens)
- Construct: expressed in transfected cells; host or cells: HEK293
- procedure_text: Activity on calcium receptors: fluo-3 fluorescence in HEK293 cells transfected with human calcium receptor gene
- Type: cell-based
- measurement_context: HEK293 cells transfected with plasmid pHuPCaR4.0 (human calcium receptor gene), loaded with fluo-3; 1 mM CaCl2, 1 mM MgCl2
I'd be grateful if you could share measured EC50 for these entries.
Numbers only, in nM.

Previously resolved entries follow.
>  <molecule>
COc1cccc([C@@H](C)NCCCCCSc2cccc(C(F)(F)F)c2)c1

>  <EC50, nM>
210

$$$$
>  <molecule>
C[C@@H](NCCC(=O)N(Cc1ccc(C(F)(F)F)cc1)Cc1ccc(Cl)c(Cl)c1)c1cccc2ccccc12

>  <EC50, nM>
16

$$$$
>  <molecule>
C[C@@H](NCCCCCSc1ccc(OC(F)(F)F)cc1)c1cccc2ccccc12

>  <EC50, nM>
140

$$$$

I need EC50 for every entry listed below, if you could help.
1. C[C@@H](NCCC(=O)N(Cc1ccc(Cl)c(Cl)c1)Cc1ccc(Cl)c(Cl)c1)c1cccc2ccccc12
2. COc1cccc(C(C)NCCCSc2ccc(Cl)cc2)c1 (centres unmarked)
3. C[C@@H](NCCCCSc1cccc(C(F)(F)F)c1)c1cccc2ccccc12
4. CC(NCCC(=O)N(Cc1ccccc1)Cc1ccccc1)c1cccc2ccccc12 (centres unmarked)
5. COc1cccc(C(C)NCCCCCCCSc2ccc(C(F)(F)F)cc2)c1 (centres unmarked)

[61, 1600, 87, 75, 270]

====

- target_under_test: human calcium receptor (Homo sapiens)
- procedure_text: Activity on calcium receptors: fluo-3 fluorescence in HEK293 cells transfected with human calcium receptor gene
- measurement_context: HEK293 cells transfected with plasmid pHuPCaR4.0 (human calcium receptor gene), loaded with fluo-3; 1 mM CaCl2, 1 mM MgCl2
For each entry below, report its EC50 value.
Answers are plain numbers, in nM.

>  <compound>
COc1cccc(C(C)NCCCOc2ccc3[nH]ccc3c2)c1 (stereo not drawn) [Compound 80]

>  <target_under_test>
human calcium receptor (Homo sapiens)

>  <observed_value>
464

$$$$
>  <compound>
CC(NCCCOc1ccc2oc(-c3ccccc3)cc(=O)c2c1)c1cccc2ccccc12 (stereo not drawn) [Compound 103]

>  <target_under_test>
human calcium receptor (Homo sapiens)

>  <observed_value>
300

$$$$
>  <compound>
COc1ccc(CN(Cc2ccc(C(F)(F)F)cc2)C(=O)CCN[C@H](C)c2cccc3ccccc23)cc1 [Compound K-2290]

>  <target_under_test>
human calcium receptor (Homo sapiens)

>  <observed_value>
100

$$$$
>  <compound>
COc1cccc(C(C)NCCCCCSc2cccc(Br)c2)c1 (stereo not drawn) [Compound K-2048]

>  <target_under_test>
human calcium receptor (Homo sapiens)

>  <observed_value>
730

$$$$
>  <compound>
Cc1ccc(SC(C)CCCN[C@H](C)c2cccc3ccccc23)c(C)c1 (stereo partly drawn) [Compound K-2303]

>  <target_under_test>
human calcium receptor (Homo sapiens)

>  <observed_value>
350

$$$$
>  <compound>
COc1cccc(C(C)NCCCCCCOc2ccc(Cl)cc2)c1 (stereo not drawn) [Compound 18]

>  <target_under_test>
human calcium receptor (Homo sapiens)

>  <observed_value>
750

$$$$
>  <compound>
CC(NCCCCSc1ccc(Br)cc1)c1cccc2ccccc12 (stereo not drawn) [Compound S-80]

>  <target_under_test>
human calcium receptor (Homo sapiens)

>  <observed_value>
100

$$$$
>  <compound>
C[C@@H](NCCCCCCCSc1c(F)c(F)c(C(F)(F)F)c(F)c1F)c1cccc2ccccc12 [Compound K-2292]

>  <target_under_test>
human calcium receptor (Homo sapiens)

>  <observed_value>
74

$$$$

Kindly review the next compound as well.
Given COc1cccc(C(C)NCCCCSc2ccccc2Br)c1 (stereo not drawn) [Compound K-2017] , respond with its EC50.
360

====

- Tested on: normal male SD rats
- procedure_text: Plasma Ca^2+ level of rats after single oral administration
- Assay type: in vivo
- measurement_context: rat, mean of six animals, 2 hr after single oral dose 30 μmol/kg; vehicle 10% cyclodextrin (** 1% sodium-CMC)
measured_attribute: Plasma Ca^2+ (mmol/l) 2 hr (mmol/L)
Numbers only, in mmol/L.

Before answering, review these 5 worked examples.
>  <sample_smiles>
C[C@@H](NCCC(=O)N(Cc1ccc(Cl)cc1)Cc1ccc(OC(F)(F)F)cc1)c1cccc2ccccc12

>  <measured_attribute>
Plasma Ca^2+ (mmol/l) 2 hr

>  <observed_value>
1.305

$$$$
>  <sample_smiles>
C[C@@H](NCCCCSc1ccc(OC(F)(F)F)cc1)c1cccc2ccccc12

>  <measured_attribute>
Plasma Ca^2+ (mmol/l) 2 hr

>  <observed_value>
1.042

$$$$
>  <sample_smiles>
COc1cccc(SCCCCN[C@H](C)c2cccc3ccccc23)c1

>  <measured_attribute>
Plasma Ca^2+ (mmol/l) 2 hr

>  <observed_value>
1.140

$$$$
>  <sample_smiles>
Cc1ccc(SCCCCCN[C@H](C)c2cccc3ccccc23)cc1

>  <measured_attribute>
Plasma Ca^2+ (mmol/l) 2 hr

>  <observed_value>
1.170

$$$$
>  <sample_smiles>
C[C@@H](NCCCCSc1cccc(C(F)(F)F)c1)c1cccc2ccccc12

>  <measured_attribute>
Plasma Ca^2+ (mmol/l) 2 hr

>  <observed_value>
1.243

$$$$

Your task in this section: give Plasma Ca^2+ (mmol/l) 2 hr for each listed record.
1. Cc1ccc(SCCCCN[C@H](C)c2cccc3ccccc23)c(C)c1
2. Cc1ccc(CN(Cc2ccc(Cl)c(Cl)c2)C(=O)CCN[C@H](C)c2cccc3ccccc23)cc1
3. Cc1ccc(CN(Cc2ccc(C(F)(F)F)cc2)C(=O)CCN[C@H](C)c2cccc3ccccc23)cc1

1. 1.130
2. 1.255
3. 1.192

====

- target_under_test: human calcium receptor (Homo sapiens)
- procedure_text: Activity on calcium receptors: fluo-3 fluorescence in HEK293 cells transfected with human calcium receptor gene
- measurement_context: HEK293 cells transfected with plasmid pHuPCaR4.0 (human calcium receptor gene), loaded with fluo-3; 1 mM CaCl2, 1 mM MgCl2
Give EC50 for every item shown.
Give bare numbers, in µM.

Look over these answered cases.
>  <compound>
CCOc1ccc2sc(SCCCCN[C@H](C)c3cccc4ccccc34)nc2c1

>  <unit_abbreviation>
µM

>  <EC50>
0.14

$$$$
>  <compound>
C[C@@H](NCCC(=O)N(Cc1ccc(Cl)cc1)Cc1ccc2ccccc2c1)c1cccc2ccccc12

>  <unit_abbreviation>
µM

>  <EC50>
0.081

$$$$
>  <compound>
COc1cccc(C(C)NCCCOc2ccc3ccccc3c2)c1 (centres unmarked)

>  <unit_abbreviation>
µM

>  <EC50>
7.2

$$$$
>  <compound>
COc1ccc(CN(Cc2ccc(OC)cc2)C(=O)CCN[C@H](C)c2cccc3ccccc23)cc1

>  <unit_abbreviation>
µM

>  <EC50>
0.14

$$$$
>  <compound>
COc1cccc(C(C)NCCCSc2c(Cl)cccc2Cl)c1 (centres unmarked)

>  <unit_abbreviation>
µM

>  <EC50>
0.12

$$$$

Consider the following items and state reported EC50 for each.
1. COc1cccc(C(C)NCCCSc2ccc(C(F)(F)F)cc2)c1 (centres unmarked)
2. C[C@@H](NCCCCCSc1ccc(Cl)cc1)c1cccc2ccccc12
3. Cc1ccc(COc2cccc(C(C)NCCSc3cc(Cl)ccc3Cl)c2)cc1 (racemic)

0.057
0.39
0.089

====

- Test system: normal male SD rats
- procedure_text: Plasma Ca^2+ level of rats after single oral administration
- Format: in vivo
- measurement_context: rat, mean of six animals, 2 hr after single oral dose 30 μmol/kg; vehicle 10% cyclodextrin (** 1% sodium-CMC)
measured_attribute: Plasma Ca^2+ (mmol/l) 2 hr (mmol/L)
Give bare numbers, in mmol/L.

Worked cases, answers included:
>  <compound>
C[C@@H](NCCC(=O)N(Cc1ccc(Cl)cc1)Cc1ccc(C(F)(F)F)cc1)c1cccc2ccccc12

>  <target_under_test>
normal male SD rats

>  <observed_value>
1.222

$$$$
>  <compound>
Cc1ccc(SCCCCN[C@H](C)c2cccc3ccccc23)cc1

>  <target_under_test>
normal male SD rats

>  <observed_value>
1.157

$$$$
>  <compound>
COc1cccc([C@@H](C)NCCCc2ccccc2Cl)c1 [KRN568, reference compound]

>  <target_under_test>
normal male SD rats

>  <observed_value>
1.237

$$$$
>  <compound>
C[C@@H](NCCCCCSc1cc(Cl)c(Cl)cc1Cl)c1cccc2ccccc12

>  <target_under_test>
normal male SD rats

>  <observed_value>
1.298

$$$$
>  <compound>
C[C@@H](NCCCCCSc1ccc(F)cc1)c1cccc2ccccc12

>  <target_under_test>
normal male SD rats

>  <observed_value>
1.187

$$$$

Lab note: each compound below needs its Plasma Ca^2+ (mmol/l) 2 hr filled in.
1. C[C@@H](NCCCCSc1c(F)c(F)c(C(F)(F)F)c(F)c1F)c1cccc2ccccc12
2. CCCCCCOc1cccc(C(C)NCCSc2cc(Cl)ccc2Cl)c1 (racemic)
3. COc1ccc(CN(Cc2ccc(Cl)c(Cl)c2)C(=O)CCN[C@H](C)c2cccc3ccccc23)cc1
4. C[C@@H](NCCC(=O)N(Cc1ccc(OC(F)(F)F)cc1)Cc1ccc(Cl)c(Cl)c1)c1cccc2ccccc12
5. COc1ccc(SCCCCCN[C@H](C)c2cccc3ccccc23)cc1
6. COc1cccc(SCCCCCN[C@H](C)c2cccc3ccccc23)c1
7. C[C@@H](NCCCCSc1cc(Cl)c(Cl)cc1Cl)c1cccc2ccccc12

[1.305, 1.212, 1.207, 1.237, 1.167, 1.155, 1.245]

Respectfully, I request Plasma Ca^2+ (mmol/l) 2 hr for each entry included below.
1. CC(NCCSc1cc(Cl)ccc1Cl)c1cccc(OCc2ccc(Cl)cc2)c1 (racemic)
2. C[C@@H](NCCC(=O)N(Cc1ccc(Cl)cc1)Cc1ccc(Cl)c(Cl)c1)c1cccc2ccccc12
3. C[C@@H](NCCCCCSc1c(F)c(F)c(C(F)(F)F)c(F)c1F)c1cccc2ccccc12
4. COc1ccc(CN(Cc2ccc(Cl)cc2)C(=O)CCN[C@H](C)c2cccc3ccccc23)cc1
5. C[C@@H](NCCCCSc1ccc(Cl)cc1)c1cccc2ccccc12
6. C[C@@H](NCCCCSc1cc(Cl)ccc1Cl)c1cccc2ccccc12

1. 1.227
2. 1.212
3. 1.267
4. 1.173
5. 1.152
6. 1.265

Look up and report Plasma Ca^2+ (mmol/l) 2 hr, with normal male SD rats as system, for `Cc1ccc(CN(Cc2ccc(OC(F)(F)F)cc2)C(=O)CCN[C@H](C)c2cccc3ccccc23)cc1`
1.188
